Test readout: Kd (µM)
Express it in µM; write the number only.

Exercise: Check TGFBR1 data and give Kd for `COc1ccc2cc(-c3nc(-c4ccccc4C(C)C)[nH]c3-c3ccncc3)ccc2c1` .
Key: 0.77

* * *

So I've got a bunch of compounds here, and I need their %Inh values.
tested on: DAPK1; conditions: concentration: 1 μM, replicates: in singlicate; n = 1
Express it in %; write the number only.

Exercise: Give recorded %Inh. O=c1cc(N2CCOCC2)nc2n(Cc3cccc(Cl)c3Cl)c3ccccc3n12 [GSK2299009]
Key: 13

Exercise: Give recorded %Inh. COc1cc2ncnc(Nc3cccc(Br)c3)c2cc1OC.Cl [GI230329]
Key: 0

Exercise: Give recorded %Inh. `CNC(=O)c1ccc(C)c(-n2c(C)cc(OCc3ccc(F)cc3F)c(Br)c2=O)c1`
Key: 0

Exercise: Give recorded %Inh. CSc1ccc(-c2nc3n(c2-c2ccncc2)CCC3)cc1 [SKF-105561]
Key: 29

Exercise: Give recorded %Inh. COc1cccc(NC(=O)Nc2ccc(C)c(-c3ccc(C(=O)Nc4ccncc4)cc3)c2)c1 [GSK1398474]
Key: 28

Exercise: Give recorded %Inh. `CNCc1ccc2nc(NC(=O)c3ccc(C(C)(C)C)cc3)cn2c1`
Key: 0

Exercise: Give recorded %Inh. Cn1cncc1-c1cc2c(Nc3ccc(OCc4ccccc4)cc3)ncnc2cn1 [GW281179]
Key: 0

Exercise: Give recorded %Inh. NS(=O)(=O)c1cccc(N/C=C2\C(=O)Nc3ccc(S(=O)(=O)Cc4c(Cl)cccc4Cl)cc32)c1 [GSK398099]
Key: 100

Exercise: Give recorded %Inh. COc1nccc(-c2c(-c3ccc(F)cc3)ncn2CCCN2CCOCC2)n1 [SB-282852]
Key: 5

Exercise: Give recorded %Inh. Nc1cccc(-c2ccc3c(N)n[nH]c3c2)n1 [GSK2192730]
Key: 27

Exercise: Give recorded %Inh. COC(=O)c1cccc(NC(=O)NC2CCN(c3ccnc(Nc4ccc(F)cc4)n3)C2)c1 (stereo not shown) [GSK1379725]
Key: 0

Exercise: Give recorded %Inh. CS(=O)(=O)CCNCc1nc(-c2ccc3ncnc(Nc4ccc(OCc5ccccc5)c(Cl)c4)c3c2)cs1.Cl [GW582764]
Key: 0

Exercise: Give recorded %Inh. CC(=O)c1cccc(NC(=O)NC2CCN(c3ccnc(Nc4ccc(F)cc4)n3)C2)c1 (stereo not shown) [GSK1379710]
Key: 15

Exercise: Give recorded %Inh. CCCCc1nn2ncccc2c1-c1ccnc(NC2CC2)n1 [GW684374]
Key: 20

Exercise: Give recorded %Inh. COc1ccc2cc(-c3nc(-c4ccccc4C(C)C)[nH]c3-c3ccncc3)ccc2c1 [SB-660566]
Key: 0

Exercise: Give recorded %Inh. CC(C)c1ccc(O)cc1Nc1ccnc2ccc(C(F)(F)F)cc12 [GW482059]
Key: 5

Exercise: Give recorded %Inh. Fc1ccc(-c2nc3n(c2-c2ccncc2)CCS3)cc1 [GI98581]
Key: 0

Exercise: Give recorded %Inh. Cc1ccc(-c2nc(Nc3ccncc3)c3ccccc3n2)s1 [GSK189015]
Key: 11

Exercise: Give recorded %Inh. Nc1nccc(-c2c(-c3ccc(F)cc3)ncn2C2CCN(Cc3ccccc3)CC2)n1 [SB-219980]
Key: 0

* * *

So I've got a bunch of compounds here, and I need their pKd values.
pKd is defined as minus the log10 of a concentration measured in mol/L.

Exercise: Check ERBB4 data and give pKd for `CS(=O)(=O)CCNCc1nc(-c2ccc3ncnc(Nc4ccc(OCc5ccccc5)c(Cl)c4)c3c2)cs1.Cl` .
Key: 7.16

Exercise: Check ERBB4 data and give pKd for `CS(=O)(=O)CCNCc1nc(-c2ccc3ncnc(Nc4ccc5c(cnn5Cc5ccccc5)c4)c3c2)cs1.Cl.Cl` .
Key: 8.09

* * *

test system: CLK3; details: concentration: 1 μM, replicates: in singlicate; n = 1
Test readout: %Inh (%)
Express it in %; write the number only.

Exercise: Check CLK3 data and give %Inh for `CS(=O)(=O)CCNCc1nc(-c2ccc3ncnc(Nc4ccc(OCc5ccccc5)c(Cl)c4)c3c2)cs1.Cl` .
Key: 0

Exercise: Check CLK3 data and give %Inh for `CC[C@@H]1CO[C@H](C(=O)Nc2ccccc2)CN1c1cc(-c2ccc3c(N)n[nH]c3c2)nc(NC)n1` .
Key: 7

Exercise: Check CLK3 data and give %Inh for `CNc1cc(-c2ccc3c(N)n[nH]c3c2)nc(N)n1` .
Key: 18

Exercise: Check CLK3 data and give %Inh for `Cc1ccc(-c2nc(Nc3ccncc3)c3ccccc3n2)s1` .
Key: 0

Exercise: Check CLK3 data and give %Inh for `CNC(=O)c1ccc(C)c(-n2c(C)cc(OCc3ccc(F)cc3F)c(Br)c2=O)c1` .
Key: 0

Exercise: Check CLK3 data and give %Inh for `Cc1ccc(NC(=O)Nc2ccc(Cl)c(C(F)(F)F)c2)cc1-c1ccc(C(=O)Nc2ccncc2)cc1` .
Key: 0

Exercise: Check CLK3 data and give %Inh for `CNCc1ccc2nc(NC(=O)c3ccc(C(C)(C)C)cc3)cn2c1` .
Key: 0

Exercise: Check CLK3 data and give %Inh for COc1ccc(Nc2nccc(N3CCC(NC(=O)c4cc5ccccc5s4)C3)n2)cc1 (stereo not drawn) .
Key: 4

Exercise: Check CLK3 data and give %Inh for Cn1cncc1C(=O)NC1CCN(c2ccnc(Nc3ccc(F)cc3)n2)C1 (stereo not drawn) .
Key: 0

Exercise: Check CLK3 data and give %Inh for `FC(F)(F)c1ccccc1-c1cc(-c2c[nH]nc2-c2ccccn2)ccn1` .
Key: 0

Exercise: Check CLK3 data and give %Inh for `COc1ccc(CSc2nnc(-c3ccc4ncsc4c3)o2)cc1C(F)(F)F` .
Key: 0

Exercise: Check CLK3 data and give %Inh for `O=c1cc(N2CCOCC2)nc2n(Cc3ccccc3F)ccn12` .
Key: 22

Exercise: Check CLK3 data and give %Inh for `COc1ccc(Nc2nccc(-c3ccc(NC(=O)c4cc5cc(F)ccc5[nH]4)cc3)n2)cc1` .
Key: 19

Exercise: Check CLK3 data and give %Inh for `Cc1ccccc1-c1cc(-c2c[nH]nc2-c2ccccn2)ccn1` .
Key: 0

Exercise: Check CLK3 data and give %Inh for `Fc1ccc(-c2nc3n(c2-c2ccncc2)CCS3)cc1` .
Key: 0

Exercise: Check CLK3 data and give %Inh for `COc1ccc(Nc2nccc(NCCNC(=O)Nc3cc(C)ccc3C)n2)cc1` .
Key: 6

Exercise: Check CLK3 data and give %Inh for `Nc1ncnc2occ(-c3ccc4c(c3)CCN4C(=O)Cc3cc(F)ccc3F)c12` .
Key: 0

Exercise: Check CLK3 data and give %Inh for `O=C(Nc1n[nH]c2nc(-c3cccs3)c(Br)cc12)C1CCCC1` .
Key: 31

* * *

test system: PIK3CG; conditions: concentration: 1 μM, replicates: in singlicate; n = 1
Test readout: %Inh
Enter the number, and then the unit.

Exercise: Check PIK3CG data and give %Inh for Cc1ccc(NC(=O)Nc2ccc(Cl)cc2)cc1-c1ccc(C(=O)Nc2ccncc2)cc1 [GSK1398472] .
Key: 0%

Exercise: Check PIK3CG data and give %Inh for `CC(=O)c1c(C)c2cnc(Nc3ccn(C)n3)nc2n(C2CCCC2)c1=O` .
Key: 61%

Exercise: Check PIK3CG data and give %Inh for Fc1ccc(-c2nn3cccc(F)c3c2-c2ccncc2)cc1 [GW475620] .
Key: 0%

Exercise: Check PIK3CG data and give %Inh for `COc1ccc(CSc2nnc(-c3ccc4ncsc4c3)o2)cc1C(F)(F)F` .
Key: 5%

Exercise: Check PIK3CG data and give %Inh for COc1ccc(Nc2nccc(NCCNC(=O)Nc3cc(C)ccc3C)n2)cc1 [GSK1379899] .
Key: 68%

Exercise: Check PIK3CG data and give %Inh for Cc1ccccc1Cn1ccn2c(=O)cc(N3CCOCC3)nc12 [GSK2269905] .
Key: 0%

Exercise: Check PIK3CG data and give %Inh for COc1ccc(Nc2nccc(-c3ccc(NC(=O)c4cc5cc(F)ccc5[nH]4)cc3)n2)cc1 [GSK1229496] .
Key: 2%

Exercise: Check PIK3CG data and give %Inh for Fc1ccc(-c2nc3n(c2-c2ccncc2)CCS3)cc1 [GI98581] .
Key: 81%

Exercise: Check PIK3CG data and give %Inh for CNc1cc(-c2ccc3c(N)n[nH]c3c2)nc(N)n1 [GSK2224810] .
Key: 5%

* * *

So I've got a bunch of molecules here, and I need their %Inh values.
test system: LZK; construct: gene MAP3K13; conditions: concentration: 1 μM, replicates: in singlicate; n = 1
Enter the number, and then the unit.

Exercise: Give recorded %Inh. `CS(=O)(=O)Cc1ccc(Nc2nccc(-c3c(-c4cccc(NC(=O)C5CCCCC5)c4)nn4ncccc34)n2)cc1`
Key: 0%

Exercise: Give recorded %Inh. `CNc1nc(-c2ccc3c(N)n[nH]c3c2)cc(N2C[C@@H](C(=O)NC3CCCCC3)OC[C@H]2C)n1`
Key: 35%

Exercise: Give recorded %Inh. `Cc1ccc(NC(=O)Nc2ccccc2F)cc1-c1ccc(C(=O)Nc2ccncc2)cc1`
Key: 0%

Exercise: Give recorded %Inh. `Nc1nccc(-c2c(-c3ccc(F)cc3)ncn2C2CCN(Cc3ccccc3)CC2)n1`
Key: 0%

Exercise: Give recorded %Inh. Cn1cncc1C(=O)NC1CCN(c2ccnc(Nc3ccc(F)cc3)n2)C1 (centres unmarked)
Key: 0%

Exercise: Give recorded %Inh. COC(=O)c1cccc(NC(=O)NC2CCN(c3ccnc(Nc4ccc(OC)cc4)n3)C2)c1 (centres unmarked)
Key: 34%

Exercise: Give recorded %Inh. `Cc1ccc(NC(=O)Nc2ccc(Cl)cc2)cc1-c1ccc(C(=O)Nc2ccncc2)cc1`
Key: 3%

Exercise: Give recorded %Inh. `c1ccc(-c2ccnc3[nH]ccc23)cc1`
Key: 11%

Exercise: Give recorded %Inh. `COc1ccc(-c2coc3ccc(-c4nnc(C)o4)cc23)cc1`
Key: 0%

Exercise: Give recorded %Inh. `CC[C@@H]1CO[C@H](C(=O)Nc2ccccc2)CN1c1cc(-c2ccc3c(N)n[nH]c3c2)nc(NC)n1`
Key: 0%

Exercise: Give recorded %Inh. `Nc1ncnc2occ(-c3ccc4c(c3)CCN4C(=O)Cc3cc(F)ccc3F)c12`
Key: 0%

Exercise: Give recorded %Inh. `CCn1c(-c2ccccc2)nc2cnccc21`
Key: 0%

Exercise: Give recorded %Inh. `CNc1nc(-c2ccc3c(N)n[nH]c3c2)cc(N2C[C@@H](C(=O)Nc3ccccc3)CC[C@H]2C)n1`
Key: 20%

Exercise: Give recorded %Inh. `Cc1ccc(-c2nc(Nc3ccncc3)c3ccccc3n2)s1`
Key: 0%

Exercise: Give recorded %Inh. `NS(=O)(=O)c1cccc(N/C=C2\C(=O)Nc3ccc(S(=O)(=O)Cc4c(Cl)cccc4Cl)cc32)c1`
Key: 0%

Exercise: Give recorded %Inh. `CS(=O)(=O)CCNCc1nc(-c2ccc3ncnc(Nc4ccc5c(cnn5Cc5ccccc5)c4)c3c2)cs1.Cl.Cl`
Key: 42%

Exercise: Give recorded %Inh. `Nc1cccc(-c2ccc3c(N)n[nH]c3c2)n1`
Key: 0%
